Target: CDK4/cyclin D1 (Homo sapiens, UniProt P11802)
Sequence (P11802 whole entry): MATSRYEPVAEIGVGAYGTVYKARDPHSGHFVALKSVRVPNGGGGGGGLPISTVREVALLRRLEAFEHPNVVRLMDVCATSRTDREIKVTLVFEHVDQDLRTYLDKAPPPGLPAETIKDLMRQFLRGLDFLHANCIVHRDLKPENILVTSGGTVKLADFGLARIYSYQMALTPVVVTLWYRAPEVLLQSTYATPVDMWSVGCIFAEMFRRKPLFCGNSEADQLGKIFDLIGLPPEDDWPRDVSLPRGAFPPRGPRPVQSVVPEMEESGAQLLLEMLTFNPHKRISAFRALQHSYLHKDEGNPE
Sequence (P24385 whole entry partner): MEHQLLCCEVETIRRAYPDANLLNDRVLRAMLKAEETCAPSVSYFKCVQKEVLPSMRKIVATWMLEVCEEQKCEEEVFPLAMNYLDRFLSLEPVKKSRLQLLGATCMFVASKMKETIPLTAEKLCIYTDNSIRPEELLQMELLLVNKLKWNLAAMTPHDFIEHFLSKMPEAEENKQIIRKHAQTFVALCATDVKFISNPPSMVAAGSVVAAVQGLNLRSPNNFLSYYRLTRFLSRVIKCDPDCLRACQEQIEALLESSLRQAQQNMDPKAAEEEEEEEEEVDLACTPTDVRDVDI
Assay: CDK/cyclin kinase assay, CDK4/cyclin D1
Classification field. Basis: IC50. Definitions: low end (below 1 µM), middle (1 µM to below 2 µM), high end (2 µM or more)

Worked examples follow.
[
  {
    "query_smiles": "Cc1[nH]c(Br)c(C)c1-c1ccnc(Nc2cccc([N+](=O)[O-])c2)n1",
    "target_of_assay": "CDK4/cyclin D1 (Homo sapiens, UniProt P11802)",
    "label_value": "high end"
  },
  {
    "query_smiles": "Cc1c(-c2ccnc(Nc3ccc(F)c([N+](=O)[O-])c3)n2)sc(=O)n1C",
    "target_of_assay": "CDK4/cyclin D1 (Homo sapiens, UniProt P11802)",
    "label_value": "middle"
  },
  {
    "query_smiles": "Cc1[nH]c(C#N)c(C)c1-c1ccnc(Nc2ccc(N(C)C)c([N+](=O)[O-])c2)n1",
    "target_of_assay": "CDK4/cyclin D1 (Homo sapiens, UniProt P11802)",
    "label_value": "low end"
  }
]

Form: Item = COc1ccc(Nc2nccc(-c3sc(=O)n(C)c3C)n2)cc1 ; Class = ?
middle

Form: Item = Cc1[nH]c(C#N)c(C)c1-c1ccnc(Nc2ccc(N(C)C)cc2)n1 ; Class = ?
low end

Form: Item = Cc1[nH]c(C#N)c(C)c1-c1ccnc(Nc2ccc(C(F)(F)F)cc2)n1 ; Class = ?
high end

Form: Item = Cc1c(-c2ccnc(Nc3ccc(N(C)C)cc3)n2)c(C)n(C)c1C#N ; Class = ?
middle

---

Molecular target: UniProt:G1T8E2
Assay: GSK-3β kinase assay (phosphorylation of CREB phosphopeptide)
Assay type: biochemical, rabbit
Conditions: read-out: IC50 value as measured by a GSK3β kinase assay
IC50 for assorted compounds

Example entries begin here.
[
  {
    "query_smiles": "Cc1c(-c2ccnc(Nc3ccc(F)c([N+](=O)[O-])c3)n2)sc(=O)n1C",
    "measured_parameter": "IC50",
    "meas_value": "< 0.01 µM"
  },
  {
    "query_smiles": "Cc1[nH]c(Br)c(C)c1-c1ccnc(Nc2cccc([N+](=O)[O-])c2)n1",
    "measured_parameter": "IC50",
    "meas_value": "< 1 µM"
  },
  {
    "query_smiles": "Cc1c(-c2ccnc(Nc3ccc(N(C)C)c([N+](=O)[O-])c3)n2)c(C)n(C)c1C#N",
    "measured_parameter": "IC50",
    "meas_value": "< 0.1 µM"
  },
  {
    "query_smiles": "Cc1ccc(Nc2nccc(-c3sc(=O)n(C)c3C)n2)cc1[N+](=O)[O-]",
    "measured_parameter": "IC50",
    "meas_value": "< 0.1 µM"
  }
]

Sample Cc1[nH]c(C#N)c(C)c1-c1ccnc(Nc2ccc(N(C)C)c([N+](=O)[O-])c2)n1 — what was its IC50?
< 0.01 µM

Sample Cc1[nH]c([N+](=O)[O-])c(C)c1-c1ccnc(Nc2ccc(N(C)C)c([N+](=O)[O-])c2)n1 — what was its IC50?
< 0.1 µM

---

System: cellular glycogen synthase activity in HEK293 cells
Experiment: Glycogen synthase (GS) assay in HEK293 cells
Type: cell-based, human
Settings: In HEK293 cells at [compound] = 5 μM; over control samples
measured_parameter: -Fold induction of GS activity

[
  {
    "molecule": "Cc1ccc(Nc2nccc(-c3sc(=O)n(C)c3C)n2)cc1[N+](=O)[O-] [Compound 36]",
    "-Fold induction of GS activity": "3.0 -fold"
  }
]

Sample Cc1c(-c2ccnc(Nc3ccc(N(C)C)cc3)n2)c(C)n(C)c1C#N [Compound 38] — what was its -Fold induction of GS activity?
1.3 -fold

Sample Cc1[nH]c(C#N)c(C)c1-c1ccnc(Nc2ccc(N(C)C)c([N+](=O)[O-])c2)n1 [Compound 20] — what was its -Fold induction of GS activity?
2.4 -fold

Sample Cc1[nH]c(C#N)c(C)c1-c1ccnc(Nc2ccc(N(C)C)cc2)n1 [Compound 12] — what was its -Fold induction of GS activity?
1.2 -fold

Sample Cc1[nH]c([N+](=O)[O-])c(C)c1-c1ccnc(Nc2ccc(N(C)C)c([N+](=O)[O-])c2)n1 [Compound 21] — what was its -Fold induction of GS activity?
3.3 -fold

Sample Cc1c(-c2ccnc(Nc3ccc(N(C)C)c([N+](=O)[O-])c3)n2)c(C)n(C)c1C#N [Compound 39] — what was its -Fold induction of GS activity?
3.0 -fold

---

pIC50 for assorted molecules
Molecular target: GSK-3β (Oryctolagus cuniculus)
Sequence (G1T8E2 1-432): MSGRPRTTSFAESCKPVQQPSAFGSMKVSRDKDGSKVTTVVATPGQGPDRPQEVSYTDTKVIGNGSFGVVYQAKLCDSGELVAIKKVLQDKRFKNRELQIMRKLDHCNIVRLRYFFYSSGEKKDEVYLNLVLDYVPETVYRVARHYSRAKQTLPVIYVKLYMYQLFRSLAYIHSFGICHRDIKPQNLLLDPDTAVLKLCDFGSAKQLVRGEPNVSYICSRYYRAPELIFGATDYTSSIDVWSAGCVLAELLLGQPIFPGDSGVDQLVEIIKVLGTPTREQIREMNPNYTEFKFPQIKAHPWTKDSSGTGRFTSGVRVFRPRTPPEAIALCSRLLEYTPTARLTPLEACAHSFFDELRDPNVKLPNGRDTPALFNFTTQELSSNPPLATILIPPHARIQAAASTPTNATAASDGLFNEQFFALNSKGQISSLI
Assay: GSK-3β kinase assay (phosphorylation of CREB phosphopeptide)
Assay type: biochemical, rabbit
Details: read-out: Kinase inhibition IC50 GSK3β
// scale note: pIC50 = -log10(conc_M); give the bare number

Example entries begin here.
[
  {
    "query_smiles": "Cc1[nH]c(Br)c(C)c1-c1ccnc(Nc2cccc([N+](=O)[O-])c2)n1",
    "pIC50": 6.55
  },
  {
    "query_smiles": "Cc1c(-c2ccnc(Nc3ccc(N(C)C)cc3)n2)c(C)n(C)c1C#N",
    "pIC50": 6.92
  },
  {
    "query_smiles": "Cc1[nH]c([N+](=O)[O-])c(C)c1-c1ccnc(Nc2ccc(N(C)C)c([N+](=O)[O-])c2)n1",
    "pIC50": 7.40
  }
]

Note: attention shifts to another entry.
Sample Cc1ccc(Nc2nccc(-c3c(C)[nH]c(C#N)c3C)n2)cc1I — what was its pIC50?
5.74

---

Target: CDK2/cyclin A (Homo sapiens, UniProt P24941)
Assay: CDK/cyclin kinase assay, CDK2/cyclin A
IC50 for assorted molecules
Your answer is read as nM, so omit the unit and give the number.

Example entries begin here.
[
  {
    "query_smiles": "Cc1c(-c2ccnc(Nc3ccc(N(C)C)c([N+](=O)[O-])c3)n2)c(C)n(C)c1C#N",
    "IC50 / nM": 220
  },
  {
    "query_smiles": "Cc1[nH]c(C#N)c(C)c1-c1ccnc(Nc2ccc(N(C)C)c([N+](=O)[O-])c2)n1",
    "IC50 / nM": 100
  },
  {
    "query_smiles": "Cc1c(-c2ccnc(Nc3ccc(F)c([N+](=O)[O-])c3)n2)sc(=O)n1C",
    "IC50 / nM": 80
  }
]

Form: Entry = Cc1c(-c2ccnc(Nc3ccc(N(C)C)cc3)n2)c(C)n(C)c1C#N | System = CDK2/cyclin A (Homo sapiens, UniProt P24941) | IC50 = ____
930

Form: Entry = Cc1[nH]c([N+](=O)[O-])c(C)c1-c1ccnc(Nc2ccc(N(C)C)c([N+](=O)[O-])c2)n1 | System = CDK2/cyclin A (Homo sapiens, UniProt P24941) | IC50 = ____
250

Form: Entry = COc1ccc(Nc2nccc(-c3sc(=O)n(C)c3C)n2)cc1 | System = CDK2/cyclin A (Homo sapiens, UniProt P24941) | IC50 = ____
700

---

Test system: GSK-3β
Assay: GSK-3β kinase assay (phosphorylation of CREB phosphopeptide)
Assay type: biochemical, rabbit
Details: ratio of IC50 values
Method: GSK-3 was obtained from New England Biolabs (UK) Ltd., Hitchin, Herts. The recombinant enzyme was isolated from a strain of E. coli that carries a clone expressing GSK-3β derived from a rabbit skeletal muscle cDNA library [Wang, Q. M.; Fiol, C. […] The samples were transferred to 96-well p81 filter plates (Whatman Polyfiltronics, Kent, UK), and the plates were washed 4 times with 200 μL/well of 75 mM aq orthophosphoric acid.
measured_parameter: Selectivity, IC50 (CDK2/E)/IC50 (GSK3β)

[
  {
    "query_smiles": "COc1ccc(Nc2nccc(-c3sc(=O)n(C)c3C)n2)cc1",
    "Selectivity, IC50 (CDK2/E)/IC50 (GSK3β)": 0.7
  }
]

Form: Entry = Cc1[nH]c(C#N)c(C)c1-c1ccnc(Nc2ccc(C(F)(F)F)cc2)n1 | System = GSK-3β | Selectivity, IC50 (CDK2/E)/IC50 (GSK3β) = ____
0.1

Form: Entry = Cc1cc(Nc2nccc(-c3c(C)[nH]c(C#N)c3C)n2)ccc1Cl | System = GSK-3β | Selectivity, IC50 (CDK2/E)/IC50 (GSK3β) = ____
0.3

Form: Entry = Cc1[nH]c(C#N)c(C)c1-c1ccnc(Nc2ccc(N(C)C)cc2)n1 | System = GSK-3β | Selectivity, IC50 (CDK2/E)/IC50 (GSK3β) = ____
0.5

Form: Entry = Cc1c(-c2ccnc(Nc3ccc(F)c([N+](=O)[O-])c3)n2)sc(=O)n1C | System = GSK-3β | Selectivity, IC50 (CDK2/E)/IC50 (GSK3β) = ____
85

---

melting point for assorted compounds

[
  {
    "query_smiles": "Cc1[nH]c([N+](=O)[O-])c(C)c1-c1ccnc(Nc2ccc(N(C)C)cc2)n1",
    "measured_parameter": "melting point",
    "meas_value": "265 to 268 °C"
  }
]

Note: attention shifts to another entry.
Sample Cc1[nH]c(C#N)c(C)c1-c1ccnc(Nc2ccc(N(C)C)cc2)n1 — what was its melting point?
190.6 to 193.7 °C
